Experimental details: LNCaP cell loss by flow event count, confirmation, cytotoxicity control for prostate differentiation activator project, single point (AID 1076);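 further: counts scatter-gated live cells after medium removal discards detached dead cells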
Condition label: flow cytometry event count, 4 d, at 100 µM
The source made the active and inactive calls.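 How the source made its calls: active means cell event count below 40, meaning activity score above 60 where score is 100 minus count; inactive means the rest.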
Classes used: t for active, f for inactive

{"columns": ["Compound", "Group"],
 "data": [
  ["N=c1n(CCN2CCCCC2)c2ccccc2n1CC(O)COc1ccccc1 (configuration not stated)", "f"],
  ["Cc1cc(=O)oc(C)c1C(=O)NCCCN1CCN(c2ccc(F)cc2)CC1", "f"],
  ["CCCCOC(=O)CSc1nc2c(cc1C#N)C(=O)CC(C)(C)C2", "f"],
  ["COc1ccc(Cl)c(N2CCN(CCCNC(=O)Nc3ccc(C)cc3)CC2)c1", "f"],
  ["N#CC1=C(N)OC2=C(C(=O)CCC2)C1c1ccc(OC(=O)N2CCOCC2)cc1 (configuration not stated)", "f"],
  ["COc1ccc(/C=N/c2nc3ccccc3n2C)cc1OC", "f"],
  ["CCOC(=O)Cn1nc(-c2ccc(Cl)cc2)cc1N", "f"],
  ["COC(=O)c1cc(-c2ccccc2)sc1NC(=O)c1cc(C)on1", "t"],
  ["CCOC(=O)c1ccc(NC(=O)Nc2ccc3c4c(cccc24)C(=O)N3CC)cc1", "f"],
  ["COc1ccc(-c2cc(C(F)(F)F)nc(N3CCN(c4ccc(F)cc4)CC3)n2)cc1OC", "f"],
  ["CCc1ccc(CNC(=O)CN2C(=O)COc3ccccc32)cc1", "f"],
  ["CCc1ccc(-c2nc(CN3CCC(C(=O)N4CCN(c5ccccc5)CC4)CC3)c(C)o2)cc1", "f"],
  ["COc1ccc(NC(=O)NCCCN2CCN(c3cc(C)ccc3C)CC2)cc1", "f"],
  ["Cc1oc(-c2ccc(Cl)cc2)nc1CN1CCC(C(=O)NCCCN2CCCC2=O)CC1", "f"],
  ["COc1ccc(-n2c3c(cc(C(=O)N4CCC(C)CC4)c2=O)C(=O)CC(C)(C)C3)cc1", "f"],
  ["COc1cc2c(C(=O)NCCCN3CCN(c4cccc(Cl)c4)CC3)cn(C)c(=O)c2cc1OC", "f"],
  ["Nc1ccc(-n2ccnc2)cc1", "f"],
  ["COc1ccccc1CNC(=O)C1CCN(Cc2nc(-c3cccc(Cl)c3)oc2C)CC1", "f"],
  ["O=C(NCCc1c[nH]c2ccccc12)C(F)(F)C(F)F", "f"],
  ["CN(C(=O)c1ccccn1)c1nnc(-c2cccnc2)s1", "f"],
  ["CCOC(=O)CSc1nnc(CNC(=O)c2ccccc2OC)n1-c1ccc(OC)cc1", "f"],
  ["O=C(CN1CCN(Cc2ccc3c(c2)OCO3)CC1)N1CCc2[nH]c3ccc(F)cc3c2C1", "f"]
]}

====

Experimental details: LNCaP cell loss by flow event count, confirmation, cytotoxicity control for prostate differentiation activator project, single point (AID 1076);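 further: counts scatter-gated live cells after medium removal discards detached dead cells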
Condition label: flow cytometry event count, 4 d, event count, at 10 µM, stronger effect = lower value
Quantity measured: cell event count

{"columns": ["Compound", "Experimental value"],
 "data": [
  ["CC(C)(O)c1cn(-c2nonc2N)nn1", 106],
  ["Cc1oc(-c2ccc(Cl)cc2)nc1CN1CCCC(C(=O)NCc2ccccn2)C1 (stereo not drawn)", 168],
  ["COc1ccc(CCNC(=O)C2CCN(Cc3nc(-c4cccc(Cl)c4)oc3C)CC2)cc1OC", 338],
  ["O=C(CSc1nc2c(c(=O)n1-c1ccc(F)cc1)SCC2)NCC1CCCO1 (stereo not drawn)", 132],
  ["COc1ccc(N2CCN(CCCNC(=O)C3CCCN(S(=O)(=O)c4cnc[nH]4)C3)CC2)cc1 (stereo not drawn)", 92.5],
  ["CCn1c(SCC(=O)Nc2ccccc2F)nc2c(c1=O)SC(C)C2 (stereo not drawn)", 70.5],
  ["CCN1C(=O)OC2(CCCCC2)C1(C)O (stereo not drawn)", 174],
  ["Cc1onc(-c2ccccc2Cl)c1C(=O)N(C)C1CCCCC1", 188],
  ["Cc1oc(-c2ccc(Cl)cc2)nc1CN1CCC(C(=O)NCc2cccnc2)CC1", 125],
  ["c1cncc(-c2nc3ccccc3o2)c1", 89.5],
  ["Cn1c(=O)cc(OCC(=O)NCCCN2CCN(c3ccccc3F)CC2)c2ccccc21", 401],
  ["Cc1oc(-c2ccc(Cl)cc2)nc1CN1CCCC(C(=O)NCc2ccco2)C1 (stereo not drawn)", 248],
  ["O=C(CN1CCC(n2nnc3cc(F)ccc32)CC1)Nc1ccc2c(c1)CCC2", 466],
  ["COC(=O)c1[nH]c2c(c1C)C(=O)CCC2", 252],
  ["COC(=O)CN1CCN(C(=O)c2ccc(F)cc2)c2ccccc2C1", 157],
  ["CCCCC(=O)NCCc1ccc(S(N)(=O)=O)cc1", 92.5],
  ["CC(C)(C)OC(=O)N1CCC(C(=O)N2CCCCCC2)CC1", 123],
  ["O=C(NCCCN1CCN(c2cccc(Cl)c2)CC1)c1nc(-c2ccncc2)no1", 462],
  ["c1ccc(CSc2nnc(-c3cccs3)n2Cc2ccco2)cc1", 122],
  ["CCOc1ccccc1NC(=O)CCC(=O)O", 200],
  ["CCN1CCN(CCNC(=O)C2CCCN(Cc3nc(-c4cccc(Cl)c4)oc3C)C2)CC1 (stereo not drawn)", 141],
  ["CCOc1ccc(-n2cc(C(=O)N3CCC(C)CC3)c3cc(OC)c(OC)cc3c2=O)cc1", 251],
  ["CCOc1ccc(C(=O)Nc2ccc(Cl)cn2)cc1Cl", 86]
]}

====

Experimental details: LNCaP cell loss by flow event count, confirmation, cytotoxicity control for prostate differentiation activator project, single point (AID 1076);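 further: counts scatter-gated live cells after medium removal discards detached dead cells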
Condition label: flow cytometry event count, 4 d, event count, at 10 µM, stronger effect = lower value
Quantity measured: cell event count

{"columns": ["Compound", "Quantity measured", "Experimental value"],
 "data": [
  ["Cc1oc(-c2cccc(Cl)c2)nc1CN1CCC(C(=O)NCCCN2CCCC2=O)CC1", "cell event count", 190],
  ["COc1ccc(-c2ccc(-c3nnn(CC(C)=O)n3)cc2)cc1", "cell event count", 116],
  ["Cn1c(=O)[nH]c(=O)c2c1nc(Br)n2CCCSc1nc2ccccc2o1", "cell event count", 96],
  ["Cc1ccccc1-c1nc(CN2CCCC(C(=O)NCc3cccnc3)C2)c(C)o1 (centres undefined)", "cell event count", 135],
  ["CCOC(=O)N1CCN(C(=O)CCc2c(C)nc3c(c(C)nn3-c3ccc(C)c(C)c3)c2C)CC1", "cell event count", 222],
  ["COc1ccc2c(c1OC)C(=O)N(C(C)C(=O)O)C2=O (centres undefined)", "cell event count", 53.5],
  ["CCOC(=O)c1ccc(-c2n[nH]c(=O)c3ccccc23)cc1", "cell event count", 236],
  ["Cn1nc(-c2ccc(Cl)cc2)c2cc(C(=O)NCCN3CCOCC3)sc21", "cell event count", 136],
  ["COC(=O)c1ccccc1S(=O)(=O)N(Cc1cc2cc3c(cc2[nH]c1=O)OCO3)C1CCCCC1", "cell event count", 103],
  ["COc1cc2nc(N3CCN(C(=O)C4COc5ccccc5O4)CC3)nc(N)c2cc1OC (centres undefined)", "cell event count", 124],
  ["Cc1oc(-c2cccc(Cl)c2)nc1CN1CCCC(C(=O)NCCCN2CCOCC2)C1 (centres undefined)", "cell event count", 220],
  ["Cc1cccc(N2CCN(C(=O)CCNC(=O)Cn3ccc4ccccc4c3=O)CC2)c1C", "cell event count", 246],
  ["COc1ccc(S(=O)(=O)Nc2ccc(F)c(Cl)c2)cc1OC", "cell event count", 144],
  ["CN1CCN(CC(=O)Nc2ccc(Cl)cc2Cl)CC1", "cell event count", 198],
  ["COCCNC(=O)CC(NS(=O)(=O)c1ccc(NC(C)=O)cc1)C(C)C (centres undefined)", "cell event count", 62],
  ["COc1ccc(Nc2nc(N3CCCC3)c3ccccc3n2)cc1", "cell event count", 180],
  ["Cc1ccnc(NC(=O)CCC(=O)N(CC(=O)NC2CCCCC2)c2cccc(C)c2C)c1", "cell event count", 66],
  ["CCc1nn(C(C)C(=O)N2CCc3ccccc3C2)c(=O)c2cc3occc3n12 (centres undefined)", "cell event count", 123],
  ["Cc1oc(-c2ccc(Cl)cc2)nc1CN1CCCC(C(=O)NCCCN2CCOCC2)C1 (centres undefined)", "cell event count", 182],
  ["CCC(=O)N(Cc1ccco1)c1nc(-c2cc(OC)ccc2OC)cs1", "cell event count", 158],
  ["Cc1ccccc1-c1nc(CN2CCC(C(=O)NCCC3=CCCCC3)CC2)c(C)o1", "cell event count", 93.5],
  ["CCCS(=O)(=O)N1CCCC(C(=O)NCCCN2CCN(c3cccc(Cl)c3)CC2)C1 (centres undefined)", "cell event count", 114],
  ["Cc1oc(-c2ccccc2F)nc1CN1CCC(C(=O)NCCC2=CCCCC2)CC1", "cell event count", 402],
  ["Cc1sc(CO)c(Sc2ccccc2)c1C(=O)O", "cell event count", 240],
  ["COc1ccc2nc3oc(C(=O)NCc4cccs4)cc3cc2c1", "cell event count", 304],
  ["c1ccc(N2CCN(c3nnc(Cc4cccnc4)c4ccccc34)CC2)nc1", "cell event count", 434],
  ["COc1ccc(-n2nnnc2SCC(=O)c2ccc(O)c(O)c2)cc1", "cell event count", 205],
  ["Cc1oc(-c2cccc(Cl)c2)nc1CN1CCC(C(=O)NCc2ccco2)CC1", "cell event count", 189],
  ["COc1ccccc1N1CCN(Cc2cc(Br)c(O)c3ncccc23)CC1", "cell event count", 35.5],
  ["COc1ccc2cc3cc(C(=O)Nc4ccccc4N4CCN(C)CC4)oc3nc2c1", "cell event count", 334],
  ["COC(=O)c1cc2oc3ccccc3c2n1CC(=O)Nc1ccccc1OC", "cell event count", 184],
  ["Cc1ccccc1-c1nc(CN2CCC(C(=O)NCCCN3CCCC3)CC2)c(C)o1", "cell event count", 65],
  ["COc1cccc(-c2cc(C(=O)N3CCCc4ccccc43)no2)c1", "cell event count", 336],
  ["CCN1CCCC1CNC(=O)c1cc2c(-c3cccc(OC)c3)nn(C)c2s1 (centres undefined)", "cell event count", 81.5],
  ["O=C(CCn1c(=O)oc2ccccc21)NCCCN1CCN(c2ccc(F)cc2)CC1", "cell event count", 127],
  ["Cc1cc(=O)c2ccccc2[nH]1", "cell event count", 91],
  ["CSc1nc2ccc(Nc3nc(N4CCOCC4)nc(N4CCOCC4)n3)cc2s1", "cell event count", 138],
  ["CCSc1nnc(Cn2c(=O)sc3ccccc32)n1-c1ccccc1C", "cell event count", 171],
  ["CCOC(=O)N1CCC(=C2c3ccc(Cl)cc3CCc3cccnc32)CC1", "cell event count", 192],
  ["O=C(NCCc1c[nH]c2ccccc12)C(F)(F)C(F)F", "cell event count", 118],
  ["CCOC(=O)C1=C(O)CCn2c1nc1ccccc12", "cell event count", 257],
  ["Cn1c(C(=O)NCCCN2CCN(c3ccccc3F)CC2)cc2c(=O)n(C)c3ccccc3c21", "cell event count", 170],
  ["CCN1CCN(C(=O)C2CCN(Cc3nc(-c4cccc(Cl)c4)oc3C)CC2)CC1", "cell event count", 192],
  ["COc1ccc(-c2cc(C(=O)NCc3ccc(Cl)cc3)no2)cc1OC", "cell event count", 255]
]}
